Experiment: chemical genetic growth profiling, strain panel (AID 1159580);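 further: tested at 20 µM; growth read once vehicle control cultures reached saturation at 30 °C; 1 = growth at the plate median or of vehicle wells; lower values mean less growth of the strain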
Settings: S. cerevisiae deletion strains, growth OD, locus YGR052W, strain FMP48
Hit rate of the full screen: of about 5,500 compounds, about 2,000 (36%) were called active. Inconclusive results (about 18%) are left out. No stated cut-off is given here; in the data, active means normalized growth mostly below about 0.91 (no sharp cut-off); inconclusive means no clear call, values can overlap the other calls; inactive means mostly above about 0.92. Some of the results follow.
Outcome codes: active, inactive

1) CC(C)(C)C(=O)/C(C#N)=C/c1c(Cl)cccc1Cl :: active
2) CS(=O)(=O)/C(C#N)=C/c1ccccc1OCc1c(Cl)cccc1Cl :: inactive
3) Oc1ccc(N=Nc2ccccn2)c(O)c1 :: active
4) CC1C/C(=N/Nc2ccc(Br)cc2)c2cc(Cl)ccc2S1 (stereo not drawn) :: active
5) NNC(=O)c1csc(Cc2c(Cl)sc3ccc(Cl)cc23)n1 :: inactive
6) O=C(Nc1ccc(Cl)cc1)O/N=C\c1ccn(-c2ccccc2)n1 :: inactive
7) O=S(=O)(Nc1ccc(Oc2ccc(OC(F)(F)F)cc2)cc1)c1cccc(Cl)c1 :: inactive
8) COc1cc(CC/C(C)=N\O)ccc1OCc1ccc(Cl)c(Cl)c1 :: inactive
9) Cc1onc(-c2ccccc2)c1C(=O)Sc1ccc(C(F)(F)F)cn1 :: active
10) COc1ccc(CC2CCC(=NOC(=O)c3ccc(C(C)(C)C)cc3)CC2)cc1 (stereo not drawn) :: inactive
11) COc1ccc(CC2CCC(=NOC(=O)c3c(Cl)cccc3Cl)CC2)cc1 (stereo not drawn) :: inactive
12) CC1(C)c2ccccc2N(CCC(N)=O)C12C=Cc1c(ccc3ccccc13)O2 (stereo not drawn) :: inactive
13) N#Cc1ccc(NC(=O)Nc2cccc3ccccc23)cc1 :: inactive
14) O=C1/C(=C/c2ccc(C(F)(F)F)cc2)COc2ccccc21 :: inactive
15) Cc1ccc(S(=O)(=O)Nc2ccc(Oc3ccc(F)cc3)cc2)cc1 :: inactive
16) CC1C/C(=N/Nc2ccc(Br)cc2)c2cc(Cl)ccc2S1(=O)=O (stereo not drawn) :: inactive
17) CNC(=O)n1nc(C)c(Cc2csc3ccc(Cl)cc23)c1C :: inactive
18) O=C(CCn1c(=O)oc2ccccc21)Sc1ccc(C(F)(F)F)cc1 :: inactive
19) O=C1CSC(c2ccc(C(F)(F)F)cc2)N1c1ccc(C(F)(F)F)cc1 (stereo not drawn) :: inactive
20) O=S(=O)(Nc1ccc(Oc2ccc(Cl)cc2)cc1)c1ccccc1 :: active
21) COc1cc(CC/C(C)=N/O)ccc1OCc1ccc(Cl)cc1Cl :: inactive
22) C/C(=N/Nc1ccccc1)c1cc(Cl)cc(Cl)c1O :: inactive
23) Cc1ccc(N2C(=O)CSC2c2ccc(Cl)c(Cl)c2)cc1Cl (stereo not drawn) :: inactive

----------
Test: chemical genetic growth profiling, strain panel (AID 1159580);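 further: tested at 20 µM; growth read once vehicle control cultures reached saturation at 30 °C; 1 = growth at the plate median or of vehicle wells; lower values mean less growth of the strain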
Conditions: S. cerevisiae deletion strains, growth OD, locus YMR223W, strain ubp8, hits give low values
Screen size: about 5,500 compounds; about 2,000 (36%) were called active. Another 18% or so got no clear call; they are omitted. Some of the results follow.
Listing of entries alongside the reported normalized growth.
Observation type: normalized growth

1) O=c1cc(-c2cc(O)c(O)c(O)c2)oc2cc(O)cc(O)c12 :: 0.964
2) COc1cc(OC)c2c3c1C(=O)c1c(OC)cc(C)c4c(OC)cc(c-3c14)C(C)(C)C2=O :: 0.969
3) CCCCSP(=O)(SCCCC)SCCCC :: 1
4) Cc1cc(=O)oc2c(O)c(O)ccc12 :: 1.02
5) COc1c(Cl)ccc(Cl)c1C(=O)O :: 1.01
6) C[C@@H]1O[C@@H](O[C@H]2C[C@@H](O)[C@]3(CO)C4C(CC[C@]3(O)C2)[C@@]2(O)CC[C@H](C3=CC(=O)OC3)[C@@]2(C)C[C@H]4O)[C@H](O)[C@H](O)[C@H]1O (stereo partly specified) :: 0.998
7) CO[C@]12C[C@@H](COC(=O)c3cncc(Br)c3)CN(C)[C@@H]1Cc1cn(C)c3cccc2c13 :: 0.984
8) O=c1cc(-c2ccccc2)oc2c(O)c(O)ccc12 :: 0.953
9) O=c1cc(-c2ccccc2)oc2cc(O)cc(O)c12 :: 0.906
10) COC(=O)CCC(C)C1CCC2C3CC[C@@H]4C[C@H](O)CC[C@]4(C)C3C[C@H](O)[C@]12C (stereo partly specified) :: 0.98
11) CC12CC3CC(C)(C1)CC(N)(C3)C2 :: 0.986
